target: CXCR7 (Homo sapiens); assay: PathHunter CHO-K1 CXCR7 b-arrestin recruitment assay (CXCR7 agonistic activity); conditions: PathHunter CHO-K1 CXCR7 b-arrestin cell line
Sequence (P25106 whole entry): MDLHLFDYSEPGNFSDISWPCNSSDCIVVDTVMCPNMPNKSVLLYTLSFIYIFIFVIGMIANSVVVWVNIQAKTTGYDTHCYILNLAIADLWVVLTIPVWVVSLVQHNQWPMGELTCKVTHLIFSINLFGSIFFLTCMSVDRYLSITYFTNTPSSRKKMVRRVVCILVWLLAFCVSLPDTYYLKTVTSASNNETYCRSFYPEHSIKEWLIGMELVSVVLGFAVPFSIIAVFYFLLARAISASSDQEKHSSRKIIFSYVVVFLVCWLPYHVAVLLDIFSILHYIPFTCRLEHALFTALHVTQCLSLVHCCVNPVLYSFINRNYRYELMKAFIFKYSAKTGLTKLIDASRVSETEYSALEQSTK
Sequence (P32121 whole entry partner): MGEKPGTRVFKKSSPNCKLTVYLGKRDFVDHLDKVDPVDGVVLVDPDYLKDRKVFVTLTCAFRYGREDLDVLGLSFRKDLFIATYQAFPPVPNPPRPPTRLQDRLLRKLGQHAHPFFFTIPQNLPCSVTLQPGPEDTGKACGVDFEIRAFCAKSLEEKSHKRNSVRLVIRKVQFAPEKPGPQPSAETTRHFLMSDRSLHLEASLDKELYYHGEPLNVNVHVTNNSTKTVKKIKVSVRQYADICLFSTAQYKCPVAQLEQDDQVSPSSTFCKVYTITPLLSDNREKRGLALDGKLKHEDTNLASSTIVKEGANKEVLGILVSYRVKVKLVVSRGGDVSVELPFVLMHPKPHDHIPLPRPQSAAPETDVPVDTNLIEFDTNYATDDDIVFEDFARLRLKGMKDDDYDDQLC
pEC50: −log10 of the molar value.
assay_metric: pEC50

CCN1CCc2cccc(NCC(=O)N(CCC(C)C)Cc3ccccc3C(F)(F)F)c2C1 6.42
CCN1CCc2cccc(NCC(=O)N(CCNC)Cc3ccccc3C(F)(F)F)c2C1 7.82

(P) CN(C)CCN(Cc1ccccc1)C(=O)CNc1cccc2c1CCN(C)C2
(Q) O=C(CNc1cccc2c1CCN(CC1CC1)C2)N(CCN1CCC(F)(F)C1)Cc1ccccc1C(F)(F)F
Name the one with the greater pEC50 value, either P or Q as given. Reply briefly: the label of your chosen item.
Q
(Q: 7.33, P: 7.00)

---

Biological target: CXCR7 (Homo sapiens)
Test: PathHunter CHO-K1 CXCR7 b-arrestin recruitment assay (CXCR7 agonistic activity)
Conditions: PathHunter CHO-K1 CXCR7 b-arrestin cell line
Procedure: The CXCl12 receptor and CXCR7 agonistic activities of the compounds of formula (I) are determined in accordance with the following experimental method. The assay is using the PathHunter™ CHO-K1 CXCR7 b-arrestin cell line from DiscoverX. The system is based on the Enzyme Fragment Complementation Technology. Two complementing fragments of the b-galactosidase enzyme are expressed within stably transfected cells. […]
pEC50: −log10 of the molar value.
assay_metric: pEC50

Please review the entries below; each comes with its answer.
compound	target	pEC50
CN1CCC(N(Cc2ccccc2C(F)(F)F)C(=O)CNc2cccc3c2CCN(C(=O)OC(C)(C)C)C3)CC1	CXCR7 (Homo sapiens)	6.47
CCN1CCc2cccc(NCC(=O)N(CCc3ccccc3C)CCN(C)C)c2C1	CXCR7 (Homo sapiens)	6.66
CCN1CCc2cccc(NCC(=O)N(CCN(C)C)Cc3ccc(C(F)(F)F)cc3)c2C1	CXCR7 (Homo sapiens)	6.81
CCN1CCc2cccc(NCC(=O)N(CCN(C)C)Cc3cccc(C)c3)c2C1	CXCR7 (Homo sapiens)	7.20
CN(C)CCN(Cc1ccccc1C(F)(F)F)C(=O)CCc1cccc2c1CCN(C(=O)OC(C)(C)C)C2	CXCR7 (Homo sapiens)	6.75
CCN1CCc2cccc(NCC(=O)N(Cc3ccccc3)C3CCN(C)C3)c2C1 (racemic)	CXCR7 (Homo sapiens)	7.25
CN1CCCC(N(Cc2ccccc2C(F)(F)F)C(=O)CNc2cccc3c2CCN(CC2CC2)C3)C1 (racemic)	CXCR7 (Homo sapiens)	9.00
CN(C)CCN(Cc1ccccc1C(F)(F)F)C(=O)CNc1cccc2c1CN(C(=O)N1CCCC1)CC2	CXCR7 (Homo sapiens)	8.15
CC(C)C(=O)N1CCc2c(cccc2OCC(=O)N(CCN(C)C)Cc2ccccc2)C1	CXCR7 (Homo sapiens)	7.13
CN(C)CCN(Cc1ccccc1C(F)(F)F)C(=O)CNc1cccc2c1CCN(CC1CC1)C2	CXCR7 (Homo sapiens)	8.70

(I) Cc1ccc(CN(CCN(C)C)C(=O)CNc2cccc3c2CCN(CC2CC2)C3)nc1
(II) CN(C)CCN(Cc1ccccc1C(F)(F)F)C(=O)CNc1cccc2c1CCN(CCCF)C2
(III) COCCN1CCc2c(cccc2NCC(=O)N(Cc2ccccc2C(F)(F)F)CC(C)(C)O)C1
Which order do these items take when sorted by rising pEC50? List them. Sort the labels as requested; that list is your answer.
III, I, II

Where do these numbers come from? They come from patent US9920010B2.
